system: rat CB1 receptors (HEK cells) (Rattus norvegicus (Rat), UniProt P20272)
Sequence (P20272 whole entry): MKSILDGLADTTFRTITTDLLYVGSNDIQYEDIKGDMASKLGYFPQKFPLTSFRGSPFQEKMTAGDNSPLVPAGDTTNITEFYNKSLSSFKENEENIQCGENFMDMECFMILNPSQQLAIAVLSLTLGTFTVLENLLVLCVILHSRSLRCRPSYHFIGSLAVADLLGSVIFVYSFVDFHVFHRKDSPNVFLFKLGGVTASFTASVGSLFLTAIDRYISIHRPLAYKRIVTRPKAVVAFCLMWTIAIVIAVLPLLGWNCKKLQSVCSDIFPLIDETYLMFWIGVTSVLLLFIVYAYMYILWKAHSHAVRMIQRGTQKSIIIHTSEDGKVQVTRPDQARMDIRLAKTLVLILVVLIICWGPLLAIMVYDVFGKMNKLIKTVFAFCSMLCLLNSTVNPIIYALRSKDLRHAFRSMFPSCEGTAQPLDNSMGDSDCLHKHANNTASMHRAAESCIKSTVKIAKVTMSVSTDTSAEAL
measurement notes: rat CB1 cyclase functional assay (HitHunter cAMP)
Assay type: cell-based
The entries below are paired with their reported EC50.

Query for rat CB1 receptors (HEK cells) (Rattus norvegicus (Rat), UniProt P20272): what EC50 does the record show for `CC(C)(C)c1cn(C[C@H]2CCCO2)/c(=N/C(=O)c2cc(C(F)(F)F)ccc2OCc2nccs2)s1` ?
2 µM

Give the reported EC50 for `CN1C(=O)CC[C@H]1COc1ccc(C(F)(F)F)cc1C(=O)/N=c1\sc(C(C)(C)C)cn1C[C@H]1CCCO1` (system: rat CB1 receptors (HEK cells) (Rattus norvegicus (Rat), UniProt P20272)).
6.56 µM

Now look at this one.
Param readout= EC50; system= rat CB1 receptors (HEK cells) (Rattus norvegicus (Rat), UniProt P20272); entry= CC(COc1ccc(C(F)(F)F)cc1C(=O)/N=c1\sc(C(C)(C)C)cn1C[C@H]1CCCO1)=NOC1CCCCO1 (stereo partly drawn) ; returns value.
> 27 µM

====

system: rat CB2 receptors (HEK cells) (Rattus norvegicus (Rat), UniProt Q9QZN9)
measurement notes: rat CB2 cyclase functional assay (HitHunter cAMP)
Format: cell-based
condition parameters: HEK cells, forskolin 18 μM; read-out: rat CB2 cyclase (EC50)
assay readout: EC50 (nM)
Respond with the bare value in nM.

Recorded EC50, per entry:
Form field: reported EC50 of `CN(CCOc1ccc(C(F)(F)F)cc1C(=O)/N=c1\sc(C(C)(C)C)cn1C[C@H]1CCCO1)c1ccccc1`
6.31

Which EC50 value belongs to `CC(C)N1CCC[C@H]1COc1ccc(C(F)(F)F)cc1C(=O)/N=c1\sc(C(C)(C)C)cn1C[C@H]1CCCO1` ?
7.32

Using the record for `CC(C)(C)c1cn(C[C@H]2CCCO2)/c(=N/C(=O)c2cc(C(F)(F)F)ccc2OC[C@H](N)CO)s1` , report its EC50.
0.14

Please look at the following compound next.
Endpoint output: EC50 of `CC(C)(C)c1cn(C[C@H]2CCCO2)/c(=N/C(=O)c2cc(C(F)(F)F)ccc2OCc2cccc[n+]2[O-])s1` . Value?
0.47

====

Target or system rat CB2 receptors (Rattus norvegicus (Rat), UniProt Q9QZN9); recorded quantity pKi.
pKi here: minus log base 10 of the concentration, concentration in moles per litre.

In the examples that follow, each entry is paired with its recorded pKi.
Kindly state the measured pKi obtained for CC(C)(C)c1cn(C[C@H]2CCCO2)/c(=N/C(=O)c2cc(C(F)(F)F)ccc2OCc2cccc[n+]2[O-])s1 [Example 20] with rat CB2 receptors (Rattus norvegicus (Rat), UniProt Q9QZN9).
7.29

Lab note: need pKi for CC(C)(C)c1cn(C[C@H]2CCCO2)/c(=N/C(=O)c2cc(C(F)(F)F)ccc2OC[C@@H]2CCN2)s1 [Example 2] on rat CB2 receptors (Rattus norvegicus (Rat), UniProt Q9QZN9), anyone have it?
8.52

Please state recorded pKi (tested on rat CB2 receptors (Rattus norvegicus (Rat), UniProt Q9QZN9)) of CC(C)(C)c1cn(C[C@H]2CCCO2)/c(=N/C(=O)c2cc(C(F)(F)F)ccc2OC[C@@H]2CCCO2)s1 [Example 23]
9.52

Provide value of pKi for this record tested with rat CB2 receptors (Rattus norvegicus (Rat), UniProt Q9QZN9): CN1C(=O)CC[C@H]1COc1ccc(C(F)(F)F)cc1C(=O)/N=c1\sc(C(C)(C)C)cn1C[C@H]1CCCO1 [Example 43]
8.48

GET /values?readout=pKi&system=rat CB2 receptors (Rattus norvegicus (Rat), UniProt Q9QZN9)&item= CC(C)(C)/C(COc1ccc(C(F)(F)F)cc1C(=O)/N=c1\sc(C(C)(C)C)cn1C[C@H]1CCCO1)=N/O [Example 70]
8.09

Turning to the following compound.
# get_value(readout= pKi, system= rat CB2 receptors (Rattus norvegicus (Rat), UniProt Q9QZN9)) for CN1C[C@@H](F)C[C@H]1COc1ccc(C(F)(F)F)cc1C(=O)/N=c1\sc(C(C)(C)C)cn1C[C@H]1CCCO1 [Example 53]
8.44
